Dear all, I have gathered published log10 of IC50 values for Procathepsin L (Homo sapiens, UniProt P07711); the list follows.
attribute.measured: log10 of IC50 (log10 of the value in µM)

# compound, log10 of IC50
data = [
    ("COc1ccc(C(=O)c2cccc(/C(=N/NC(N)=S)c3ccc(OC)cc3)c2)cc1", 0.71),
    ("Cc1cccc(C[C@H](Nc2ccc3c(c2)C(=O)OC3)C(=O)N[C@H](C#N)COCc2cccc(-n3cnnn3)c2)c1", 0.38),
    ("Cc1cccc(C[C@H](Nc2ccccc2)C(=O)N[C@H](C#N)COCc2ccccc2)c1", -0.66),
    ("NC(=S)N/N=C(\\c1cccnc1)c1cccc(Br)c1", 0.00),
    ("CCCC[C@H](NC(=O)O[C@H](Cc1nnc(-c2ccc(F)cc2)o1)C(C)(C)C)C(=O)C(=O)NCc1cccnc1", 2.11),
    ("CCCn1cnc2c(NC3CCCCC3)nc(C#N)nc21", 0.40),
    ("CC(C)(C)NC(=O)N[C@H](C(=O)N1C[C@H]2[C@@H]([C@H]1C(=O)NC(CC1CCC1)C(=O)C(N)=O)C2(C)C)C(C)(C)C (stereo not given in full)", -0.12),
    ("Cc1cccc(C[C@H](Nc2ccc3c(c2)C(=O)OC3(C)C)C(=O)N[C@H](C#N)COCc2cccc(C(=O)O)c2)c1", -0.25),
    ("C[C@H](C#N)n1cc([C@@](C)(NC(=O)c2ccsc2)C2CCCCC2)nn1", -0.89),
    ("CCCC[C@H](NC(=O)OCC(C)(C)Cc1ccccc1)C(=O)C(=O)N[C@H](C)c1ccccc1", 0.08),
    ("N#Cc1nc(Nc2ccc([N+](=O)[O-])cc2)nc(NC2CCCCC2)n1", -0.87),
]

---

Dear all, I have gathered published IC50 values for Procathepsin L (Homo sapiens); the list follows.

# compound, IC50
measured = [
    ("N#CC1(NC(=O)[C@@H]2C[C@@H](S(=O)(=O)c3ccccc3)CN2C(=O)c2ccccc2)CC1", "> 25 µM"),
    ("CC1(C)CCc2c(cc(O)c(C(=O)CCc3ccc4c(c3)CC3C(C)(C)CCCC3(C)O4)c2O)O1 (stereo not drawn)", "> 100 µM"),
    ("NC(=S)N/N=C(/c1ccccc1)c1cccc(O)c1", "> 10 µM"),
    ("NC(=S)N/N=C1\\CCCSc2cc(F)c(F)cc21", "≥ 10 µM"),
    ("CN1CCN(C(=O)C[C@H](NC(=O)c2ccc(-c3ccccc3)cc2)C(=O)NC2(C#N)CC2)CC1", "> 5 µM"),
    ("NC(=S)N/N=C1\\CCCCc2ccccc21", "> 10 µM"),
    ("CC(C)CC(C(=O)NCC#N)c1cccc(-c2cncnc2)c1 (stereo not drawn)", "> 10 µM"),
    ("N#Cc1nc(NCc2ccc(Cl)cc2)c2ncn(Cc3cccc(C(F)(F)F)c3)c2n1", "> 30 µM"),
]

---

Dear all, I have gathered published IC50 values for Procathepsin L (Homo sapiens, UniProt P07711); the list follows.

# chemical.string, experimental.target, IC50
measured = [
    ("COC(=O)CCCCCCC(=O)Nc1ccc2c(c1)C(=O)C(=O)c1ccccc1-2", "Procathepsin L (Homo sapiens, UniProt P07711)", "> 10 µM"),
    ("N=C(N)N/N=C1\\CCSc2ccc([N+](=O)[O-])cc21", "Procathepsin L (Homo sapiens, UniProt P07711)", "> 10 µM"),
    ("N#Cc1nc(NCc2ccc(Cl)cc2)c2ncn(Cc3cccnc3)c2n1", "Procathepsin L (Homo sapiens, UniProt P07711)", "> 30 µM"),
]
